Target: PI3Kβ (Homo sapiens)
Construct: His tag (pFastbac HTa vector) (N); FLAG (N); made in house; host or cells: Sf21 insect cells (baculovirus)
Sequence (P42338 whole entry): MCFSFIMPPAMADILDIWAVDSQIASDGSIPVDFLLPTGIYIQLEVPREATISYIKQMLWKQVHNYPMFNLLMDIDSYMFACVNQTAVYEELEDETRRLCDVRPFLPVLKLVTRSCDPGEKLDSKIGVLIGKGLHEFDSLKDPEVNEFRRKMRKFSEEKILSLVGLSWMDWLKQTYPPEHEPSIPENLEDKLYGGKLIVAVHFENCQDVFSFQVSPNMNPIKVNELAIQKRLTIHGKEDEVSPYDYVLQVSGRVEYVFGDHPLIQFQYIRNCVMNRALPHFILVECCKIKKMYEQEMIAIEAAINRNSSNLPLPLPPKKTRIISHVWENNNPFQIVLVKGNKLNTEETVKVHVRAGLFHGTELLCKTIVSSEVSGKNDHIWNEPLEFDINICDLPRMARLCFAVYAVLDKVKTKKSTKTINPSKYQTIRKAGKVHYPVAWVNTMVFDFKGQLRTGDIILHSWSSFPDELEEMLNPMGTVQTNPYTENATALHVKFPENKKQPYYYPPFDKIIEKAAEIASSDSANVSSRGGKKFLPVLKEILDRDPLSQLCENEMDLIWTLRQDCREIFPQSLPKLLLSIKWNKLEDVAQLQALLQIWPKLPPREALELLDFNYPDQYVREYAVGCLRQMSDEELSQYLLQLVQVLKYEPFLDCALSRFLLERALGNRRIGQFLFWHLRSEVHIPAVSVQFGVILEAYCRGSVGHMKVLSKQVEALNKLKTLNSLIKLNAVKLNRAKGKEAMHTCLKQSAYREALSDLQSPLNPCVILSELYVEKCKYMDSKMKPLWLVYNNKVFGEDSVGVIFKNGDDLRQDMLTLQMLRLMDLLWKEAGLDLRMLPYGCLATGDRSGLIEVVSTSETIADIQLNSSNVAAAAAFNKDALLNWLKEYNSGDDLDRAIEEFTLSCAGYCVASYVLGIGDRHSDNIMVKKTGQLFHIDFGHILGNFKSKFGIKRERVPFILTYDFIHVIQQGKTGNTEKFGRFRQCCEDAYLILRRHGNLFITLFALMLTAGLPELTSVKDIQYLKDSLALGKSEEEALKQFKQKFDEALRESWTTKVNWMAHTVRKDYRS
Sequence (P27986 whole entry partner): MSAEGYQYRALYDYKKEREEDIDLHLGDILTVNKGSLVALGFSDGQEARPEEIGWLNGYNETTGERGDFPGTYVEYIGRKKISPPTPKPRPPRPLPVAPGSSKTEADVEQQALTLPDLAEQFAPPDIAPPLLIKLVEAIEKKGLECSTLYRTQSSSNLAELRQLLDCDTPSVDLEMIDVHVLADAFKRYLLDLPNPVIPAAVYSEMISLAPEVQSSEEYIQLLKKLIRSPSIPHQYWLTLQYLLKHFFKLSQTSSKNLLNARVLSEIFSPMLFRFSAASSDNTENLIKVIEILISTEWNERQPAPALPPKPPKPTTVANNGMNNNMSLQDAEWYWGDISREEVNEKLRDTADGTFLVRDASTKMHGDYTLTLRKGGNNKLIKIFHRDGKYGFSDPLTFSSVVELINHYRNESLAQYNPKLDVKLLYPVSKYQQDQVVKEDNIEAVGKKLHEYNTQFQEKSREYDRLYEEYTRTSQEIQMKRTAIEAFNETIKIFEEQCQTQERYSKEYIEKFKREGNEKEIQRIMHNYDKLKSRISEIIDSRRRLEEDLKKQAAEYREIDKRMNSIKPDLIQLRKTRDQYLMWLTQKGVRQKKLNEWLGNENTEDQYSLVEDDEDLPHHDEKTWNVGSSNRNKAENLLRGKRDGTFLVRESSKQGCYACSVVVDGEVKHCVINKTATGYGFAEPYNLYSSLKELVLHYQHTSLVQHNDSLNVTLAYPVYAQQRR
Test: Biochemical assay of PI3K potency and selectivity using 20 μM ATP, Beta
Settings: 20 μM ATP; ratio of IC50 values; > = hypothetical ratio with 100 μM substituted for the missing IC50
observed.property: Beta/Delta Ratio
Answer field: number only, no words.

Recorded Beta/Delta Ratio, per entry:
Please give the measured Beta/Delta Ratio for this compound: "O=c1c2c(Cl)cccc2nc(CSc2ncnc3[nH]cnc23)n1-c1ccccc1F"
550

Now consider O=c1c2ccccc2nc(CSc2ncnc3[nH]ncc23)n1-c1ccccc1Cl [Compound D-999, reference compound] and answer again.
2.1

Kindly review the next compound as well.
# lookup: Beta/Delta Ratio of "Nc1ncnc2c1ncn2Cc1nc2cccc(Cl)c2c(=O)n1-c1ccccc1Cl"
38
